# measured.on: T1, human CD19 (human, UniProt P15391 20-556)
# T1 construct: CD19 as expressed on Raji, NALM-6 and SU-DHL-6 cells; also called CD19 antigen; B-cell surface antigen B4
# T1 sequence: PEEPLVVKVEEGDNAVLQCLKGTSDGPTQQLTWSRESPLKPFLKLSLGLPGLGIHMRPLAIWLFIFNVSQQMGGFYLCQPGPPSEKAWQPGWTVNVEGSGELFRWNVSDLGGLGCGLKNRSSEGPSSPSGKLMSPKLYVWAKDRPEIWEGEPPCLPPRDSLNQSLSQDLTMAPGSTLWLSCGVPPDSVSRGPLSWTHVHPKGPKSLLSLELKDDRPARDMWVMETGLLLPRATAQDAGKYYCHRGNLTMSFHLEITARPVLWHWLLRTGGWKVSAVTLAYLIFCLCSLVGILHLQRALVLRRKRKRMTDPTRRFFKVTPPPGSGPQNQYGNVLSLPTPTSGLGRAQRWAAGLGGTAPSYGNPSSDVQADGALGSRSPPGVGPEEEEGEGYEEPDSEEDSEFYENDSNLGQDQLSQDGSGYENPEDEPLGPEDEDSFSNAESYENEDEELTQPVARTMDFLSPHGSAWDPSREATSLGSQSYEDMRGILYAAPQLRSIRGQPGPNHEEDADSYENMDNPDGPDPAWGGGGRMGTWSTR
# procedure.details: flow cytometry, Raji cells, MPF vs chimeric FMC63
Values of relative MPF (% of chimeric FMC63) strictly less than 10% map to fulfilled, and values of at least 10% map to not fulfilled.

binder: VH16 R94K/VL43 V3Q/T7S/Y32F/P44I/N92A (antibody, human IgG1, kappa, V domains shown, human IgG1/kappa) VH: QVQLVQSGGGVVQPGRSLRLSCAASGVSLPDYGVSWVRQAPGKGLEWVAVIWGSETTYYNSALKSRFTISRDNSKNTLYLQMNSLRAEDTAVYYCAKHYYYGGSYAMDYWGQGTLVTVSS VL: DIQMTQSPSSLSASVGDRVTITCRASQDISKFLNWYQQKPGKAIKLLIYHTSRLHSGVPSRFSGSGSGTDFTLTISSLQPEDFATYYCQQGATLPYTFGPGTKVDIKR
category: not fulfilled

binder: VH16 R94K Y96F VL43 (antibody, human IgG1, name in Kabat numbering, V domains shown, substitutions in Kabat numbering) VH: QVQLVQSGGGVVQPGRSLRLSCAASGVSLPDYGVSWVRQAPGKGLEWVAVIWGSETTYYNSALKSRFTISRDNSKNTLYLQMNSLRAEDTAVYYCAKHFYYGGSYAMDYWGQGTLVTVSS VL: DIVMTQTPSSLSASVGDRVTITCRASQDISKYLNWYQQKPGKAPKLLIYHTSRLHSGVPSRFSGSGSGTDFTLTISSLQPEDFATYYCQQGNTLPYTFGPGTKVDIKR
category: fulfilled

binder: VH16-L78V/VL43-F71Y (antibody, human IgG1, name in Kabat numbering, V domains shown, substitutions in Kabat numbering) VH: QVQLVQSGGGVVQPGRSLRLSCAASGVSLPDYGVSWVRQAPGKGLEWVAVIWGSETTYYNSALKSRFTISRDNSKNTVYLQMNSLRAEDTAVYYCARHYYYGGSYAMDYWGQGTLVTVSS VL: DIVMTQTPSSLSASVGDRVTITCRASQDISKYLNWYQQKPGKAPKLLIYHTSRLHSGVPSRFSGSGSGTDYTLTISSLQPEDFATYYCQQGNTLPYTFGPGTKVDIKR
category: not fulfilled

binder: VH16-L78V/VL43 (antibody, human IgG1, name in Kabat numbering, V domains shown, substitutions in Kabat numbering) VH: QVQLVQSGGGVVQPGRSLRLSCAASGVSLPDYGVSWVRQAPGKGLEWVAVIWGSETTYYNSALKSRFTISRDNSKNTVYLQMNSLRAEDTAVYYCARHYYYGGSYAMDYWGQGTLVTVSS VL: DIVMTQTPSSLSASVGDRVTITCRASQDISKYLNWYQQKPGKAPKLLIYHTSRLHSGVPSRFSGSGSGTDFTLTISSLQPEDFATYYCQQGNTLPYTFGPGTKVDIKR
category: not fulfilled

binder: VH16-R94K/VL43-F71Y (antibody, human IgG1, V domains shown, Full-length human IgG1/kappa; substitutions in Kabat numbering) VH: QVQLVQSGGGVVQPGRSLRLSCAASGVSLPDYGVSWVRQAPGKGLEWVAVIWGSETTYYNSALKSRFTISRDNSKNTLYLQMNSLRAEDTAVYYCAKHYYYGGSYAMDYWGQGTLVTVSS VL: DIVMTQTPSSLSASVGDRVTITCRASQDISKYLNWYQQKPGKAPKLLIYHTSRLHSGVPSRFSGSGSGTDYTLTISSLQPEDFATYYCQQGNTLPYTFGPGTKVDIKR
category: not fulfilled
